Test system: HepG2
assaySummary: cell viability relative to DMSO; higher = less toxic
recordedConditions: 72 h; 100 nM
measurementType: cell viability

cell viability in this record for COC(=O)C[C@](O)(CCC(C)(C)O)C(=O)O[C@@H]1C(OC)=C[C@]23CCCN2CCc2cc4c(cc2[C@H]13)OCO4 : 45.7%

cell viability in this record for O=S(=O)(O)c1ccc(O)cc1 : 116%

cell viability in this record for N[C@H](C(=O)O)c1cc(O)no1 : 95.1%

cell viability in this record for O=C(c1ccccn1)c1cnn2c(-c3ccncc3)ccnc12 : 107%

cell viability in this record for COc1ccc2[nH]c([S+]([O-])Cc3ncc(C)c(OC)c3C)nc2n1 (stereo not given) : 104%

###

System: HepG2
assaySummary: cell viability relative to DMSO; higher = less toxic
recordedConditions: 72 h; 100 nM
measurementType: cell viability (%)
Respond with the bare value in %.

The reported HepG2 cell viability of CC(C)Cc1ccc([C@@H](C)C(=O)NCCO)cc1 (racemic) [mabuprofen] is 90.8

The reported HepG2 cell viability of O=[N+]([O-])c1cnc(Sc2nnc(O)n2-c2ccc3c(c2)OCCO3)s1 [BI-78D3] is 95.8

The reported HepG2 cell viability of O=C(Nc1ccc(Cl)cc1)Nc1ccc(Cl)c(Cl)c1 [triclocarban] is 99.6

The reported HepG2 cell viability of C=C(c1ccc(C(=O)O)cc1)c1cc2c(cc1C)C(C)(C)CCC2(C)C [bexarotene] is 107

The reported HepG2 cell viability of CNC(=O)c1cccc(NC(=O)N2CCC(Oc3ccccc3Cl)CC2)c1 is 92.4

The reported HepG2 cell viability of Cc1ccc2cc(-c3c(C)ccc(C(=O)c4c(-c5ccccc5)n(C)n(-c5ccccc5)c4=O)c3N)ccc2n1 [AMG-PERK-44] is 93

The reported HepG2 cell viability of CCCCC1=NC2(CCCC2)C(=O)N1Cc1ccc(-c2ccccc2-c2nnn[nH]2)cc1 [irbesartan] is 102

The reported HepG2 cell viability of CCN1CCN(c2ccc(C(C)(C)NC(=O)c3cc4[nH]c5ccccc5c(=O)c4cc3F)cn2)CC1 is 103

###

Would you kindly list cell viability for each of these compounds?
System: U2OS
assaySummary: cell viability relative to DMSO; higher = less toxic
recordedConditions: 72 h; 1000 nM
Respond with the bare value in %.

cell viability in this record for c1ccc(Cn2c(N3CCNCC3)nc3ccccc32)cc1 : 98.1

cell viability in this record for COc1ccc2cc(-c3cc(-c4cc(Cl)cc(Cl)c4)nn3[C@@H](C)c3ccc(C(=O)NCCC(=O)O)cc3)ccc2c1 : 96.8

cell viability in this record for Cc1ccc(C(=O)N(CCCN)[C@@H](c2oc3cc(Cl)ccc3c(=O)c2Cc2ccccc2)C(C)C)cc1 : 52

cell viability in this record for Cc1ccc(-c2csc(NC(=O)c3ccccc3)n2)c(C)c1 : 96.3

cell viability in this record for CCCn1cnc2c1c(=O)n(CCCCC(C)=O)c(=O)n2C : 101

cell viability in this record for N#Cc1ccc(COC[C@H]2O[C@@H](n3c(NCc4ccc(Cl)c(Cl)c4)nc4c(N)ncnc43)[C@H](O)[C@@H]2O)cc1 : 97.4

cell viability in this record for Cc1cccn2c(=O)c(-c3nnn[nH]3)cnc12 : 91.5
